# testSettings: 298.15 K; 101.33 kPa; Liquid; Vibrating tube method
measuredAttribute: mass density (kg/m3)
State the answer as a number, implicitly in kg/m3.

Cc1ccccc1 [toluene]: 862.17
CCCCn1cc[n+](C)c1.COS(=O)(=O)[O-] [1-butyl-3-methylimidazolium methyl sulfate]: 1212.59

For this compound ( C1=CCCCC1 [cyclohexene] ), measured mass density is 805.69

// mass density value for C1CCCCC1 [cyclohexane] : 773.8

Per the records, this compound ( CC1CCCCC1 [methylcyclohexane] ) has mass density equal to 765.02

Quick note, mass density for C1CCCCCCC1 [cyclooctane] landed at 831.47
